- System: L1210 leukemia ip in BDF1 mice, survival T/C
- assayText: NCI In Vivo Anticancer Drug Screen. Data for tumor model L1210 Leukemia (intraperitoneal) in B6D2F1 (BDF1) mice
- conditionInfo: endpoint: mean survival time; dose: 200.0 mg/kg/injection; schedule: Q01DX001 (ip); vehicle: saline; higher = longer survival
Toxic doses and inconclusive results are not listed.
T/C values by entry
quantityMeasured: T/C

[[record]]
compound = "CN(C)c1ccc(C=Nc2ccccc2O)cc1"
valuereported = "96 % of control"

[[record]]
compound = "Nc1c(Cl)ncnc1Nc1ccccc1C(=O)O"
valuereported = "98 % of control"

[[record]]
compound = "CC1(C)CCCC2(C)C3=C(CC4(C(C)(C)O)OC4C3=O)C(=O)CC12 (stereo unspecified)"
valuereported = "105 % of control"

[[record]]
compound = "Nc1nc(N)c(-c2ccc(Cl)cc2)c(COc2cccc(NC(=O)c3ccc(NC(=O)CBr)cc3)c2)n1"
valuereported = "91 % of control"

[[record]]
compound = "O=Nn1cc(-c2cc3ccccc3n2N=O)c2ccccc21"
valuereported = "96 % of control"

[[record]]
compound = "CCC1(Sc2ncnc3c2ncn3C2OC(CO)C(O)C2O)C(=O)NC(=O)NC1=O (stereo unspecified)"
valuereported = "111 % of control"

[[record]]
compound = "Cl[Si](Cc1ccccc1)(Cc1ccccc1)Cc1ccccc1"
valuereported = "88 % of control"

[[record]]
compound = "CCCCC(=O)N/N=C/c1ccc(O)cc1O"
valuereported = "92 % of control"

[[record]]
compound = "CCN(CC)CCOC(=O)c1ccccc1S(N)(=O)=O"
valuereported = "101 % of control"

[[record]]
compound = "NSc1ccc([N+](=O)[O-])cc1"
valuereported = "97 % of control"

[[record]]
compound = "CC(NC(=O)C(CO)NC(=O)c1cnc2ccccc2n1)C(=O)OC(C)(C)C (stereo unspecified)"
valuereported = "102 % of control"

